System: MCF-7 cells
Assay: Mitochondrial membrane potential (rhodamine 123, flow cytometry)
Format: cell-based, human
Settings: MCF-7, compounds at respective IC50, 24 h
Procedure: To determine whether the toxic effects of selected sesquiterpenes (10c, 11c, 12c, 13c, and 14c) are due to the production of ROS and subsequent apoptosis, the mitochondrial membrane potential was measured. With this aim, a protocol using rhodamine 123 staining and flow cytometry was established to study the effect of the selected compounds [40]. The accumulation of rhodamine 123 in mitochondria is associated with the maintenance of the electrochemical gradient in mitochondria. […]
Metric name: mitochondrial membrane permeability

These recorded examples may help you get a feel for the data.
>  <Molecule>
COc1ccc([C@@H](O)[C@H]2C(C)=CCC3C(C)(C)CCC[C@@]32C)cc1OC (some centres unmarked) [Compound 10c]

>  <Target>
MCF-7 cells

>  <Metric name>
mitochondrial membrane permeability

>  <Result>
did not increase

$$$$
>  <Molecule>
COc1ccc(C(=O)[C@H]2C(C)=CCC3C(C)(C)CCC[C@@]32C)cc1OC (some centres unmarked) [Compound 12c]

>  <Target>
MCF-7 cells

>  <Metric name>
mitochondrial membrane permeability

>  <Result>
did not increase

$$$$
>  <Molecule>
COc1ccc(/C=C2\C(C)=CCC3C(C)(C)CCC[C@]23C)cc1OC (some centres unmarked) [Compound 13c]

>  <Target>
MCF-7 cells

>  <Metric name>
mitochondrial membrane permeability

>  <Result>
did not increase

$$$$
>  <Molecule>
COc1cc2c(cc1OC)[C@]1(C)CCC3C(C)(C)CCC[C@]3(C)C1=C2 (some centres unmarked) [Compound 14c]

>  <Target>
MCF-7 cells

>  <Metric name>
mitochondrial membrane permeability

>  <Result>
did not increase

$$$$

// below: mitochondrial membrane permeability requested for another molecule
Return reported mitochondrial membrane permeability. Input molecule: COc1ccc(C[C@H]2C(C)=CCC3C(C)(C)CCC[C@@]32C)cc1OC (some centres unmarked) [Compound 11c]
did not increase
